Source: patent US7879835B2

# relative absorbance (MTT) relative to control (set as 100) per entry
- Test system: MG-63 cells
- procedure.summary: Cytotoxicity test against osteoblast (MTT)
- Type: cell-based, human
- condition.notes: 1 μM compound
I'd appreciate a reply containing only the number, no unit.

>  <smiles.input>
CO/C=C(/C(=O)OC)c1ccccc1COc1cccc(N2CCCCC2)c1

>  <assay.system>
MG-63 cells

>  <recorded.value>
84

$$$$
>  <smiles.input>
CO/C=C(/C(=O)OC)c1ccccc1COc1ccc(N2CCCCC2)cc1

>  <assay.system>
MG-63 cells

>  <recorded.value>
76

$$$$
>  <smiles.input>
CO/C=C(/C(=O)OC)c1ccc(Cl)cc1COc1ccc(N2CCOCC2)cn1

>  <assay.system>
MG-63 cells

>  <recorded.value>
105

$$$$
>  <smiles.input>
CO/C=C(/C(=O)OC)c1ccccc1COc1cccc(CN2CCOCC2)c1

>  <assay.system>
MG-63 cells

>  <recorded.value>
92

$$$$

QUERY: I have this compound here, `CO/C=C(/C(=O)OC)c1ccccc1COc1cccc(N2CCN(C)CC2)c1` , and I need its recorded relative absorbance (MTT) relative to control (set as 100).
RESULT: 99

QUERY: // same read-out, input: `CO/C=C(/C(=O)OC)c1ccc(Cl)cc1COc1cccc(N2CCOCC2)c1`
RESULT: 69

---

- procedure.summary: In vivo pharmacokinetics using female mice (serum concentration, HPLC)
- condition.notes: mouse, serum, iv, I.V., read-out: Half-life (converted)
- Method: Female mice each weighing […] were divided into groups of 5 mice each. […] 10 μl each of the standard solutions prepared above was added to 100 μl of normal serum sample and diluted 10 times. […] 20 μl of the resulting solution was analyzed by HPLC to prepare a standard calibration curve. HPLC was performed with Shimadzu ODS2 column (4.6×250 mm, 5 μm by employing a mixture of methanol/water (90/10 (v/v)) as the mobile phase at a flow rate of 1.2 ml/min, and measuring the absorbance at 240 nm. […]
# Half-life per entry
Numbers only; they are read as h.

>  <molecule>
CO/C=C(/C(=O)OC)c1ccc(Cl)cc1COc1ccc(OCCOC)cc1 [Compound No. 274]

>  <Half-life [h]>
3.5

$$$$
>  <molecule>
CO/C=C(/C(=O)OC)c1ccccc1COc1cccc(N2CCCCC2)c1 [Compound No. 388]

>  <Half-life [h]>
7.3

$$$$
>  <molecule>
CO/C=C(/C(=O)OC)c1ccccc1COc1cccc(N2CCCC2)n1 [Compound No. 415]

>  <Half-life [h]>
10.8

$$$$

QUERY: I have this molecule here, CO/C=C(/C(=O)OC)c1ccccc1COc1cccc(CN2CCOCC2)c1 [Compound No. 404] , and I need its recorded Half-life.
RESULT: 10.2

---

# half-life at 20 µM per entry
- procedure.summary: In vitro pharmacokinetics: metabolic stability in liver microsome
- Type: in vitro ADME
- condition.notes: liver microsomes; human liver microsome 1 mg/ml, 20 μM compound
Numbers only; they are read as min.

Some solved cases for reference:
>  <molecule>
CO/C=C(/C(=O)OC)c1ccccc1COc1cccc(N2CCN(C)CC2)c1 [compound 391]

>  <value.unit>
min

>  <half-life at 20 µM>
107

$$$$
>  <molecule>
CO/C=C(/C(=O)OC)c1ccccc1COc1ccc(N2CCCCC2)c(F)c1 [compound 416]

>  <value.unit>
min

>  <half-life at 20 µM>
43.9

$$$$
>  <molecule>
CO/C=C(/C(=O)OC)c1ccccc1COc1cccc(CN2CCOCC2)c1 [Compound No. 404]

>  <value.unit>
min

>  <half-life at 20 µM>
57.4

$$$$
>  <molecule>
CO/C=C(/C(=O)OC)c1ccccc1COc1cccc(N2CCCC2)n1 [Compound No. 415]

>  <value.unit>
min

>  <half-life at 20 µM>
24.9

$$$$
>  <molecule>
CO/C=C(/C(=O)OC)c1ccccc1COc1ccc(N2CCCCC2)cc1 [compound 399]

>  <value.unit>
min

>  <half-life at 20 µM>
43

$$$$
>  <molecule>
CO/C=C(/C(=O)OC)c1ccccc1COc1cccc(N2CCCCC2)c1 [Compound No. 388]

>  <value.unit>
min

>  <half-life at 20 µM>
30.7

$$$$

QUERY: I have this molecule here, CO/C=C(/C(=O)OC)c1ccccc1COc1ccc(N(C)CC(C)C)cc1F [Compound No. 426] , and I need its recorded half-life at 20 µM.
RESULT: 42.7

QUERY: // same read-out, input: CO/C=C(/C(=O)OC)c1ccc(Cl)cc1COc1cccc(N2CCOCC2)c1 [Compound No. 386]
RESULT: 40.7
